ASSAY_REMARKS: protein stability index of a GFP-peptide fusion (yeast GPS) (PSI 1-4); higher = more stable; sorted into four equal gates, so the index is relative within each strain
SETUP_CONDITIONS: san1∆

- SEQUENCE_DATA: "ITKLHLDKDRKALIQRK [RPL26A]"
  protein stability index: 2.49
- SEQUENCE_DATA: "QVASIIESFVELGVSIY [NUT2]"
  protein stability index: 2.2
- SEQUENCE_DATA: "VHNTVAAGNASSLPPGE [SNF5]"
  protein stability index: 2.94
- SEQUENCE_DATA: "SLGFLQQSNKLHCCIQL [RPN3]"
  protein stability index: 1.86
- SEQUENCE_DATA: "VQRTMLELLNQLDGFSS [RPT5]"
  protein stability index: 2.83
- SEQUENCE_DATA: "RKKTPAGDWKYDRQLSS [FAS2]"
  protein stability index: 1.59
- SEQUENCE_DATA: "VNEMNDQLAQELKDLET [NNF1]"
  protein stability index: 3.27
- SEQUENCE_DATA: "SNSALFRAVGEGNAQLV [FAS1]"
  protein stability index: 2.27
- SEQUENCE_DATA: "VGKDTPFTIYDGEAVAK [PRE5]"
  protein stability index: 3.14
- SEQUENCE_DATA: "QLYHLEQQKEELTDKLS [SMC1]"
  protein stability index: 2.78
- SEQUENCE_DATA: "GSPSLTSPQYIPSPLSS [NUT1]"
  protein stability index: 2.65
- SEQUENCE_DATA: "ERKKQSDVLRFLQRVRV [RPL15B]"
  protein stability index: 2.04
- SEQUENCE_DATA: "KERISVAAASKILSNLV [PRE2]"
  protein stability index: 2.78
- SEQUENCE_DATA: "ETLKRDRKQSQATNATN [ARP7]"
  protein stability index: 2.39
- SEQUENCE_DATA: "NLQTADTVIIFDTDWNP [SNF2]"
  protein stability index: 2.8
- SEQUENCE_DATA: "VECAQHCIDYLRKNKLG [SMC4]"
  protein stability index: 1.62
- SEQUENCE_DATA: "INGWKFESLPLKSAENS [SWP82]"
  protein stability index: 2.9
- SEQUENCE_DATA: "NYTQNIDNLESYAGIST [SIR2]"
  protein stability index: 2.87
- SEQUENCE_DATA: "VLNMLYWVPDWDGVIPT [RPO21]"
  protein stability index: 2.92
- SEQUENCE_DATA: "SVFMPLIFIACNDEDKD [ECM29]"
  protein stability index: 2.09
- SEQUENCE_DATA: "SAMPAPYMPYYYYYHPM [DSN1]"
  protein stability index: 2.74
- SEQUENCE_DATA: "LKRMEILKSPHLSKSPA [SIR4]"
  protein stability index: 2.95
- SEQUENCE_DATA: "YFLHLSVFNAELLKLLN [YCS4]"
  protein stability index: 1.8
- SEQUENCE_DATA: "STVKVSDLNLTDRQKKL [YLR018C/POM34]"
  protein stability index: 2.79
- SEQUENCE_DATA: "MSAPEAQQQKRGGFGGR [RPS2]"
  protein stability index: 3.28
- SEQUENCE_DATA: "GITYRREDMPFTAEGIV [RPB2]"
  protein stability index: 2.39
- SEQUENCE_DATA: "VKKGPVRLPTKVLKIST [RPS20]"
  protein stability index: 2.54
- SEQUENCE_DATA: "ATVPSGRPETYIWRYLP [RPO31]"
  protein stability index: 1.16
- SEQUENCE_DATA: "LEATWNFIEPGINQILG [CDC53]"
  protein stability index: 3.38
- SEQUENCE_DATA: "RIENPEKYAAAAPAATS [RPP0]"
  protein stability index: 2.71
- SEQUENCE_DATA: "KPIQNGEIIDISAFTQF [ARP9]"
  protein stability index: 2.64
- SEQUENCE_DATA: "DTTFSDFKEVEDFLHFI [SRB4]"
  protein stability index: 2.23
- SEQUENCE_DATA: "FLGALKYLPHAILKLLE [PRP8]"
  protein stability index: 2.55
- SEQUENCE_DATA: "ICLMTLIETVFVKNIRM [RPN9]"
  protein stability index: 1.22
- SEQUENCE_DATA: "QSLLSLYFEIIHGVLKN [FAS2]"
  protein stability index: 2.14
- SEQUENCE_DATA: "VIRDSVTYTEHAKRKTV [HHF1]"
  protein stability index: 1.44
- SEQUENCE_DATA: "LEANGRSLEKVNNSVSK [SSN2]"
  protein stability index: 3.18
- SEQUENCE_DATA: "KIAYRGVKDCQEGLITT [SSN2]"
  protein stability index: 2.91
- SEQUENCE_DATA: "LLEKYNTNELKEVSSFL [MTR3]"
  protein stability index: 3.23
- SEQUENCE_DATA: "IAPPVAPHDSEATLLTN [SNF5]"
  protein stability index: 2.93
- SEQUENCE_DATA: "HPYEYEIDHQEYSPEIL [RRP6]"
  protein stability index: 2.83
- SEQUENCE_DATA: "LEHVLLVPTASFFIASQ [FAS1]"
  protein stability index: 1.45
- SEQUENCE_DATA: "QAPSELELQVAKTFIDL [RPS7B]"
  protein stability index: 2.89
- SEQUENCE_DATA: "PRINNISAEDRADTDLA [SNF2]"
  protein stability index: 3.02
- SEQUENCE_DATA: "TPSSNSNSSELEPDYQA [MED1]"
  protein stability index: 3.35
- SEQUENCE_DATA: "IALILAIQMVDPASFYL [SMC3]"
  protein stability index: 2.1
- SEQUENCE_DATA: "HKKKRSNAAGADDAISM [SRB8]"
  protein stability index: 2.83
- SEQUENCE_DATA: "GRKYTTLGKLSTSVGWK [RPL16B]"
  protein stability index: 2.77
- SEQUENCE_DATA: "HEFKLIVGKKIQEFLVV [GRR1]"
  protein stability index: 2.38
- SEQUENCE_DATA: "NVPVHVSPAFRVQVGDI [RPS11A]"
  protein stability index: 2.68
- SEQUENCE_DATA: "KKVKSASKKSGGDVVKF [SMC4]"
  protein stability index: 2.89
- SEQUENCE_DATA: "VAARGLDIPNVSLVVNF [PRP28]"
  protein stability index: 2.04
- SEQUENCE_DATA: "NYLNDMHDSNLQNNSDS [SKP1]"
  protein stability index: 2.3
- SEQUENCE_DATA: "LIAEETNNKKLLEKANN [SMC3]"
  protein stability index: 2.38
- SEQUENCE_DATA: "FAVALKNEPDYSKAKYP [CDC53]"
  protein stability index: 2.37
- SEQUENCE_DATA: "LMTSHTKGDTSKATGAP [RTT102]"
  protein stability index: 3.27
- SEQUENCE_DATA: "IDNLKDTLKENATEVQK [ITC1]"
  protein stability index: 2.92
- SEQUENCE_DATA: "SLKNDLPQFRSSIQESL [ECM29]"
  protein stability index: 3.22
- SEQUENCE_DATA: "YVRAKFLDYTTDNVSMY [PRP8]"
  protein stability index: 2.54
- SEQUENCE_DATA: "DNDIMNLGSRTKNNTQA [SSN3]"
  protein stability index: 2.76
- SEQUENCE_DATA: "SRPLKKVKILEQIDENW [SWI3]"
  protein stability index: 2.82
